measurement_description: Elimination half life in human at 1 to 25 mg, po
Type: ADME
recorded_conditions: in vivo, read-out: LambdaZ

compound: CCOc1ccc(Cc2cc([C@@H]3S[C@H](CO)[C@@H](O)[C@H](O)[C@H]3O)c(OC)cc2C)cc1 [LUSEOGLIFLOZIN]
half-life: 9.2 to 13.8 h

###

measurement_description: Half life in human
Type: ADME

mol: OC[C@H]1O[C@@H](c2ccc(Cl)c(Cc3ccc(O[C@@H]4CCOC4)cc3)c2)[C@H](O)[C@@H](O)[C@@H]1O
unit_tag: h
half-life: 1

###

measurement_description: Toxicity in human T2DM patients assessed as reduction in systolic blood pressure at 10 mg, po for 4 weeks
Assay type: organism-based
recorded_conditions: in vivo, 672 h

compound: CCOc1ccc(Cc2cc([C@]34OC[C@](CO)(O3)[C@@H](O)[C@H](O)[C@H]4O)ccc2Cl)cc1 [ERTUGLIFLOZIN]
Activity: 2.59 to 2.86 mmHg
